Reported log10 of IC50 by item:
Target: human TLR7 (Homo sapiens, UniProt Q9NYK1)
Sequence (Q9NYK1 27-1049): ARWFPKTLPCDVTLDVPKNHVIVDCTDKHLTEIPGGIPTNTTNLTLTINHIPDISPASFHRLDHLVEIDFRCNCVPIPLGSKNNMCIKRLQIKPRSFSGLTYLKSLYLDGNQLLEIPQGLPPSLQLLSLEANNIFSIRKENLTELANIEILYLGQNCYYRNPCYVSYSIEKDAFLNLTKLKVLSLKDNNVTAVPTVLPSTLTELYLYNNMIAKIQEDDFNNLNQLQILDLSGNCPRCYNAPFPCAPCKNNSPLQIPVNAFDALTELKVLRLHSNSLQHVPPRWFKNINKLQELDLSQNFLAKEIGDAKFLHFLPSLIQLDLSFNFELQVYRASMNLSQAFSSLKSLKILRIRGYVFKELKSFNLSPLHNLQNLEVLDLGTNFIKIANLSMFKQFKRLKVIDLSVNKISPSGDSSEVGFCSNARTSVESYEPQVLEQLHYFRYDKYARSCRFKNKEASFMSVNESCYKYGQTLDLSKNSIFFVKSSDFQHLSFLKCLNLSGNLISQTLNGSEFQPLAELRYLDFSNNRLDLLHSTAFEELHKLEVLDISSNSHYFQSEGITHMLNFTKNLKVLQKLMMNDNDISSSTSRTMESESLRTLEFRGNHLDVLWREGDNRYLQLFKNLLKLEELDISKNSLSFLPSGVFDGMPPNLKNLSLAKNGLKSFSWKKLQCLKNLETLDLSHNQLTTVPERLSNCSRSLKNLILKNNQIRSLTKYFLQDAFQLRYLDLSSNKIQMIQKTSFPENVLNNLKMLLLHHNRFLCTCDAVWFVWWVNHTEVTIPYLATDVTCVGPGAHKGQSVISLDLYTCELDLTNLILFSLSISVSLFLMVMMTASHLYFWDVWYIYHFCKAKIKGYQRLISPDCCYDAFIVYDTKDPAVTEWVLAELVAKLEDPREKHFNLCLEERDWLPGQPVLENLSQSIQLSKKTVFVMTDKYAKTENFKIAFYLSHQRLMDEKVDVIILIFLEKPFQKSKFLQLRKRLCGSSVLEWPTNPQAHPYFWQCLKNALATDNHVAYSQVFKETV
Assay: TLR7 inhibition reporter assay (HEK-Blue SEAP reporter, gardiquimod stimulation)
Details: HEK-Blue cells overexpressing human TLR7, SEAP reporter, gardiquimod 7.5 μM, 22 hour incubation
Description: TLR7/8/9 Inhibition Reporter Assays HEK-Blue™-cells (Invivogen) overexpressing human TLR7, TLR8 or TLR9 receptors were used for screening inhibitors of these receptors using an inducible SEAP (secreted embryonic alkaline phosphatase) reporter gene under the control of the IFN-β minimal promoter fused to five NF-κB and AP-1-binding sites. […]
Units before log transform: nM; reported quantity: IC50; transform: log10.

>>> readout_number("CC(C)c1c(-c2ccc(=O)n(C(C)C)c2)[nH]c2ccc(C3CCNCC3)cc12")
2.48
>>> readout_number("Cc1cc(-c2[nH]c3ccc(C4CCN(CCC(N)=O)CC4)cc3c2C(C)C)cn(C)c1=O")
0.98
>>> readout_number("CNC(=O)CN1CCC(c2ccc3[nH]c(-c4cc(C)c(=O)n(C)c4C)c(C(C)C)c3c2)CC1")
1.19
>>> readout_number("Cc1cc(-c2[nH]c3ccc(C4CCN(C5CCOC5)CC4)cc3c2C(C)C)nn(C)c1=O (stereo not shown)")
1.10
>>> readout_number("Cc1c(-c2[nH]c3ccc(C4CCN(CC(C)(C)O)CC4)c(F)c3c2C(C)C)cn(C)c(=O)c1Cl")
0.78
>>> readout_number("Cc1c(-c2[nH]c3ccc(C4CCN(CC5(O)CCOCC5)CC4)cc3c2C(C)C)cn(C)c(=O)c1C")
1.04

Please turn your attention to the following entry.
State the recorded log10 of IC50 for this entry: `CC(C)c1c(-c2cc(-c3cncnc3)c(=O)n(C)c2)[nH]c2ccc(C3CCN(CCS(C)(=O)=O)CC3)cc12` 1.52

###

molecular target: human TLR9 (Homo sapiens, UniProt Q9NR96); assay: TLR9 inhibition reporter assay (HEK-Blue SEAP reporter, ODN2006 stimulation); details: HEK-Blue cells overexpressing human TLR9, SEAP reporter, ODN2006 5 nM, 22 hour incubation
Sequence (Q9NR96 26-1032): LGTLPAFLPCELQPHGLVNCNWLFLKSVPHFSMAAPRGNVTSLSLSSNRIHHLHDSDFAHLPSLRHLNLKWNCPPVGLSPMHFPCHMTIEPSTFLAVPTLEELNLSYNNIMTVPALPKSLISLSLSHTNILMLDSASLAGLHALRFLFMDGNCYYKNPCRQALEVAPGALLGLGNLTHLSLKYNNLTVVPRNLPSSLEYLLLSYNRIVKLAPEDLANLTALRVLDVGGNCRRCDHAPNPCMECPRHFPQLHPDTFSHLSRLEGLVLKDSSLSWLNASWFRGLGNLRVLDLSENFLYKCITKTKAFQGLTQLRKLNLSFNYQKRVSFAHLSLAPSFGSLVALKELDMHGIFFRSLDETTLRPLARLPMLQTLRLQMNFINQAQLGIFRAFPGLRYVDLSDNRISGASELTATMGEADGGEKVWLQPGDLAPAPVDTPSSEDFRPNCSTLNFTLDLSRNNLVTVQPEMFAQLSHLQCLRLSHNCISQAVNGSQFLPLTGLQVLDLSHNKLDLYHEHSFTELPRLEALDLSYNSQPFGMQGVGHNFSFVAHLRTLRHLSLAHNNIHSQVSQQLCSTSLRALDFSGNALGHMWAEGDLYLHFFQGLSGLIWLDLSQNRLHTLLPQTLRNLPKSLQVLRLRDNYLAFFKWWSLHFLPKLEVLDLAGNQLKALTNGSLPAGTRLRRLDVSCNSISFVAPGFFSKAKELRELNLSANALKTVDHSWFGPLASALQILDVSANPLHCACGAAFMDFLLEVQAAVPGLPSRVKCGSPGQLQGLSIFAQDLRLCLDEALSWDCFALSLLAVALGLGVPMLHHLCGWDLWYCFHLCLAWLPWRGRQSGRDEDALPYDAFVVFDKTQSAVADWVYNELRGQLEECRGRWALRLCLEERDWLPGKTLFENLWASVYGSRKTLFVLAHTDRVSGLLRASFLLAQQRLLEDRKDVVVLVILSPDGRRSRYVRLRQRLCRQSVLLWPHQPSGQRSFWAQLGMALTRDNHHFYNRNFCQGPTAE
pIC50 by entry:
The value called pIC50 is obtained by taking minus log10 of the concentration in mol/L.

Which pIC50 reading was recorded for the compound `CC(C)c1c(-c2cc(CO)c(=O)n(C)c2)[nH]c2ccc(C3CCNCC3)cc12` ? 5.61

Try `Cc1cc(-c2[nH]c3ccc(C4CCNCC4)cc3c2C(C)C)cn(Cc2ccccc2)c1=O` next. 6.04

`COc1cc(-c2[nH]c3ccc(C4CCN(CC(C)(C)O)CC4)cc3c2C(C)C)c(C)n(C)c1=O` ? 5.46

And the next one, `Cc1c(-c2[nH]c3ccc(C4CCNCC4)cc3c2C(C)C)cn(C)c(=O)c1C` ? 5.78

###

Listed here are molecules together with their documented IC50.
molecular target: human TLR7 (Homo sapiens, UniProt Q9NYK1); experiment: TLR7 inhibition reporter assay (HEK-Blue SEAP reporter, gardiquimod stimulation); details: HEK-Blue cells overexpressing human TLR7, SEAP reporter, gardiquimod 7.5 μM, 22 hour incubation
Answer format: numeric, nM implied, no suffix.

Given the molecule Cc1cc(-c2[nH]c3ccc(C4CCN(C5CCC(C(C)C)CC5)CC4)cc3c2C(C)C)cn(C)c1=O (centres unmarked) [Example 234] , what is its reported IC50? 40.2

And the next one, `Cc1c(-c2[nH]c3ccc(C4CCN(C(=O)C(F)(F)F)CC4)cc3c2C(C)C)cn(C)c(=O)c1Cl` ? 20.4

Repeat for the following molecule: `Cc1cc(-c2[nH]c3ccc(C4CCN(CCN5C(=O)CCC5=O)CC4)cc3c2C(C)C)cn(C)c1=O` 44.3

Then `CC(C)c1c(-c2cc(F)c(=O)n(C)c2)[nH]c2ccc(C3CCNCC3)cc12` ? 18.2

Try this molecule too: `COCCn1cc(-c2[nH]c3ccc(C4CCN(CC(C)C)CC4)cc3c2C(C)C)cc(C)c1=O` 13

For `CC(C)c1c(-c2cc(C(F)(F)F)c(=O)n(C)c2)[nH]c2ccc(C3CCNCC3)cc12` then? 18

Cool, now `Cc1c(-c2[nH]c3ccc(C4CCN(C(=O)CN(C)C)CC4)cc3c2C(C)C)cc(C#N)c(=O)n1C` 90.2

What about this molecule? `Cc1c(-c2[nH]c3ccc(C4CCNCC4)cc3c2C(C)C)nn(C)c(=O)c1C` 21.1
